IC50 values, listed per item
target: UniProt P56373; test: Evaluation of human P2X3 receptor inhibitory activity (Fluo-3 calcium fluorescence, FDSS 3000, ATP stimulation); assay type: cell-based; conditions: C6BU-1 cells stably expressing human P2X3 receptor, Fluo-3 fluorescence, FDSS 3000;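 also: stimulus was 50 nM ATP with fluorescence followed for 3 min, and the response per well was peak post-ATP fluorescence divided by the reading at measurement start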
Sequence (P56373 whole entry): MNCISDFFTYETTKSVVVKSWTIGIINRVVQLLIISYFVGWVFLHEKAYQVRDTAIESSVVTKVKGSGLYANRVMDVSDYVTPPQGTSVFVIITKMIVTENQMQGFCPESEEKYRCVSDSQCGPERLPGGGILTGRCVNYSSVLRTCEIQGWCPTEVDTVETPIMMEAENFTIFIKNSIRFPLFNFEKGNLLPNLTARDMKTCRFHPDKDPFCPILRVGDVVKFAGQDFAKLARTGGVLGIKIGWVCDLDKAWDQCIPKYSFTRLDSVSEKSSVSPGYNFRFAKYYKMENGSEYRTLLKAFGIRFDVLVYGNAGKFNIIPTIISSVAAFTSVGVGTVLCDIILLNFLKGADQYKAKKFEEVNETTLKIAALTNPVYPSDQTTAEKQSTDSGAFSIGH
endpoint-name: IC50 (nM)

[[record]]
test_smiles = "CCC[C@@H](C)Oc1ccc(/N=c2\\[nH]c(=O)n(CCC(=O)OCC)c(=O)n2Cc2ccc(C)cc2)cc1"
recorded_value = 79

[[record]]
test_smiles = "Cc1ccc(Cn2c(=O)n(CCC(=O)O)c(=O)[nH]/c2=N\\c2cn(C)nc2C(=O)NC(C)C)cc1"
recorded_value = 107

[[record]]
test_smiles = "COC(=O)[C@@H](C)Cn1c(=O)[nH]/c(=N\\c2ccc(OC(C)C)c(OC(C)C)c2)n(Cc2ccc(C)cc2)c1=O"
recorded_value = 133

[[record]]
test_smiles = "CCc1nc2ccc(/N=c3\\[nH]c(=O)n(CC(=O)O)c(=O)n3Cc3ccc(Cl)cc3)cc2s1"
recorded_value = 150

